Source listed as paper PMC7318006.

test: Concentration in autopsy samples of cerebral cortex of deceased patients, HPLC-UV; type: in vivo, human; conditions: human, cerebral cortex, 1100 mg; patient 11, cumulative dose 1,100 mg, treatment 19 days, 712 h between last administration and death, 58 h between death and sampling, LLOQ 0.10 μg/g; read-out: Concn in cerebral cortex (autopsy)
Starred links: 1 amine or outer side, 2 acyl side, 3 side chain; linkers in the order of their positions; H or OH if unused. Positions of bridges follow the written chain, without caps; N, C: chain ends. Non-standard residues stand in square brackets, D forms with d. Residues, ends and D or L forms follow the SMILES beside them. *: point of attachment. hTyr(3S-OH,4S-OH,3'-OSO3H) = N[C@H](C(=O)O)[C@H](O)[C@@H](O)c1ccc(O)c(OS(=O)(=O)O)c1; Orn(4R-OH,5R-OH) = O=C([C@H](C[C@@H](O)[C@@H](O)N[*:3])N[*:1])[*:2]; Pro(3S-OH,4S-Me) = C[C@H]1CN[C@H](C(=O)O)[C@H]1O; X1 = CCCCCOc1ccc(-c2cc(-c3ccc(C(=O)*)cc3)no2)cc1; Gln(3R-OH) = NC(=O)C[C@@H](O)[C@H](N)C(=O)O; Hyp = O=C(O)[C@@H]1C[C@@H](O)CN1
measured_property: tissue level at time at 712 h

Ask: Look up tissue level at time at 712 h for this molecule: CCCCCOc1ccc(-c2cc(-c3ccc(C(=O)N[C@H]4C[C@@H](O)[C@@H](O)NC(=O)[C@@H]5[C@@H](O)[C@@H](C)CN5C(=O)[C@H]([C@H](O)CC(N)=O)NC(=O)[C@H]([C@H](O)[C@@H](O)c5ccc(O)c(OS(=O)(=O)O)c5)NC(=O)[C@@H]5C[C@@H](O)CN5C(=O)[C@H]([C@@H](C)O)NC4=O)cc3)no2)cc1 [micafungin] (X1-[Orn(4R-OH,5R-OH)]T[Hyp][hTyr(3S-OH,4S-OH,3'-OSO3H)][Gln(3R-OH)][Pro(3S-OH,4S-Me)]; lactam 1-C)
Reply: < 100 ng/g
